assay target: MetRS (T. brucei) (Trypanosoma brucei brucei)
Sequence (Q38C91 1-773): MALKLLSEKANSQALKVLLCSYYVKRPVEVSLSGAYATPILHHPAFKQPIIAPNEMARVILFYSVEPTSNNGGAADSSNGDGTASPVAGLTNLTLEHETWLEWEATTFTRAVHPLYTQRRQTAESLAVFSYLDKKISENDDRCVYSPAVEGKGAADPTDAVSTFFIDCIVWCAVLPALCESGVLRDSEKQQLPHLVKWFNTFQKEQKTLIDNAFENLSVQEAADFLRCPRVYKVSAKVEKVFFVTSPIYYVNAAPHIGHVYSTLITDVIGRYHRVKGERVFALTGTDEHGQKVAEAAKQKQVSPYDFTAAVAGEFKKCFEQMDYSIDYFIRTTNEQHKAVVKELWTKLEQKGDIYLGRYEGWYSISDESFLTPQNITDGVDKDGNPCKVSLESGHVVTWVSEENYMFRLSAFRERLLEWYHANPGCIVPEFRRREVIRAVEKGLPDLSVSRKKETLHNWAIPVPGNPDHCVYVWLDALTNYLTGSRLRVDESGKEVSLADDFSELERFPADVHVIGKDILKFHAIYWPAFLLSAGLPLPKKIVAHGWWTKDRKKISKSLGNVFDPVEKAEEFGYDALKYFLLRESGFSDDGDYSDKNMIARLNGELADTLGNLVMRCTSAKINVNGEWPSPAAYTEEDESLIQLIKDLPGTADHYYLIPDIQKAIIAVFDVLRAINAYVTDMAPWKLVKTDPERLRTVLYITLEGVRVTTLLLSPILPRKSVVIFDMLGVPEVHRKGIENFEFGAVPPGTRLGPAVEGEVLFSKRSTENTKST
assay endpoint: IC50

{"columns": ["compound", "assay endpoint", "endpoint result"],
 "data": [
  ["COc1ccc(-c2cnc3ccc(NCc4nc5nc(F)ccc5[nH]4)cn23)c(Cl)c1 [Compound 2173]", "IC50", "57 nM"],
  ["CC(C)n1c(Cc2ccc(Cl)cc2Cl)cn(Cc2nc3ccc(F)nc3[nH]2)c1=O [Compound 2080]", "IC50", "< 40 nM"],
  ["CCn1c(Cc2ccc(Cl)cc2Cl)cn(Cc2nc3ccc(F)nc3[nH]2)c1=S [Compound 2103]", "IC50", "63 nM"]
]}

Input: Which IC50 value is on record for Clc1ccc(Cc2cn(Cc3nc4cc(Cl)ccc4[nH]3)cn2)c(Cl)c1 [Compound 2192] ?
Output: < 40 nM

Input: // query IC50 value for entry Fc1ccc2[nH]c(Cc3cn4c(-c5cc(Cl)cc(Cl)c5)cccc4n3)nc2n1 [Compound 2131]
Output: 325 nM

* * *

measurement protocol: Protein binding assays, equilibrium dialysis
Assay type: in vitro ADME, mouse
measurement context: 1 μM, equilibrium dialysis 22 hours
The entries below are paired with their reported % binding to mouse plasma.
Give the number; % is assumed, so skip it.

Use these answered entries as a reference point.
{"columns": ["compound", "endpoint result"],
 "data": [
  ["CC(=O)NC[C@H]1CN(c2ccc(N3CCOCC3)c(F)c2)C(=O)O1", 39.5],
  ["CCn1c(Cc2ccc(Cl)cc2Cl)cn(Cc2nc3nc(F)ccc3[nH]2)c1=O", 99.4],
  ["CCCn1c(Cc2ccc(Cl)cc2Cl)cn(Cc2nc3nc(F)ccc3[nH]2)c1=O", 99.6],
  ["COc1cc(Cl)c(-c2cccc3nc(Cc4nc5nc(Cl)ccc5[nH]4)cn23)cc1OC", 98.4],
  ["Fc1ccc2nc(NCCCN[C@@H]3CCNc4c(Cl)cc(Cl)cc43)[nH]c2n1 [Compound 1717, reference compound]", 97.6]
]}

Input: Given Fc1ccc2nc(NCCCNCc3cc(Cl)cc(Cl)c3)[nH]c2n1 , state its recorded % binding to mouse plasma.
Output: 96.5

Input: State the recorded % binding to mouse plasma for this entry: CCn1c(Cc2ccc(OC)cc2Cl)cn(Cc2nc3nc(Cl)ccc3[nH]2)c1=O
Output: 99.9
